# protein stability index annotations
B1: MIA2 (parent)
chain: NSISSDKEATVPCTEILTEKKDTI

# Variants of: B1
# Assay Overview: protein stability index of a GFP-peptide fusion (GPS, HEK-293T) (PSI 1-6); higher = more stable;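 note: lentivirally expressed fusions sorted by FACS into six bins by GFP to DsRed ratio, PSI derived from sequencing read proportions per bin multiplied by bin number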
# Experimental Conditions: c terminus: a fixed tail appended

- Variant Code: "D22K"
  protein stability index: 5.16
- Variant Code: "I3N"
  protein stability index: 5.7
- Variant Code: "D22I"
  protein stability index: 4.55
- Variant Code: "N1R"
  protein stability index: 5.48
- Variant Code: "E15C"
  protein stability index: 4.8
- Variant Code: "P12V"
  protein stability index: 5.35
- Variant Code: "L17P"
  protein stability index: 5.62
- Variant Code: "I3T"
  protein stability index: 4.68
- Variant Code: "S4Q"
  protein stability index: 5.63
- Variant Code: "D22E"
  protein stability index: 5.6
- Variant Code: "K20M"
  protein stability index: 5.35
- Variant Code: "K7A"
  protein stability index: 5.07
- Variant Code: "T10M"
  protein stability index: 5.17
- Variant Code: "I3K"
  protein stability index: 5.71
- Variant Code: "K21C"
  protein stability index: 5.27
- Variant Code: "K20R"
  protein stability index: 5.17
- Variant Code: "T10P"
  protein stability index: 5.32

Source listed as the supplement of paper PMC10567573.
